Data provenance: patent US10174067B2

Listed below: Weight change rate, Day 8 values for each entry.
# details: Day 8; G3-G9 groups; single IP dose; Mean±SEM

compound: O=C(Nc1ccn([C@@H]2O[C@H](CO)[C@@H](O)C2(F)F)c(=O)n1)OCc1ccc([N+](=O)[O-])cc1 [Compound G5]
Weight change rate, Day 8 (%): 2.81
//
compound: CC(C)(C)OC(=O)Nc1ccn([C@@H]2O[C@H](CO)[C@@H](O)C2(F)F)c(=O)n1 [Compound G3]
Weight change rate, Day 8 (%): 2.86
//
compound: CC(C)(C)OC(=O)Nc1ccn([C@@H]2O[C@H](COC(=O)Cn3cnc([N+](=O)[O-])c3)[C@@H](O)C2(F)F)c(=O)n1 [Compound G9]
Weight change rate, Day 8 (%): 3.54
//
compound: CCCCOC(=O)Nc1nc(=O)n([C@@H]2O[C@H](CO)[C@@H](O)C2(F)F)cc1Br [Compound G6]
Weight change rate, Day 8 (%): 1.55
//
compound: O=C(Nc1nc(=O)n([C@@H]2O[C@H](CO)[C@@H](O)C2(F)F)cc1Br)OCc1ccccc1 [Compound G7]
Weight change rate, Day 8 (%): −1.24
//
compound: O=C(Nc1ccn([C@@H]2O[C@H](CO)[C@@H](O)C2(F)F)c(=O)n1)OCc1ccccc1 [Compound G4]
Weight change rate, Day 8 (%): 0.30

----------
Reported Weight of mice, Day 11 is given for each of the following compounds.
# details: Day 11; G10-G16 groups; single IP 400 mg/kg; Mean±SEM

compound: CCCCOC(=O)Nc1nc(=O)n([C@@H]2O[C@H](COC(=O)Cn3cnc([N+](=O)[O-])c3)C(O)C2(F)F)cc1I (stereo partly drawn)
quantity.unit: g
Weight of mice, Day 11: 20.70
//
compound: CCCCOC(=O)Nc1nc(=O)n(C2OC(COC(=O)COc3nc(Cl)c(Cl)cc3Cl)C(O)C2(F)F)cc1-c1cn(Cc2ccccc2)nn1 (stereo not drawn)
quantity.unit: g
Weight of mice, Day 11: 21.40
//
compound: O=C(COc1nc(Cl)c(Cl)cc1Cl)OC[C@H]1O[C@@H](n2cc(Br)c(NC(=O)OCc3ccccc3)nc2=O)C(F)(F)C1O (stereo partly drawn)
quantity.unit: g
Weight of mice, Day 11: 20.45

----------
Below, each entry is listed with its recorded Weight of mice, Day 7.
# details: Day 7; G10-G16 groups; single IP 400 mg/kg; Mean±SEM

compound: O=C(COc1nc(Cl)c(Cl)cc1Cl)OC[C@H]1O[C@@H](n2cc(Br)c(NC(=O)OCc3ccccc3)nc2=O)C(F)(F)C1O (stereo partly drawn) [Compound G10]
Weight of mice, Day 7 / g: 20.02
--
compound: O=C(COc1nc(Cl)c(Cl)cc1Cl)OCC1OC(n2cc(-c3cn(Cc4ccccc4)nn3)c(NC(=O)OCc3ccc([N+](=O)[O-])cc3)nc2=O)C(F)(F)C1O (stereo not drawn) [Compound G13]
Weight of mice, Day 7 / g: 19.90
--
compound: CCCCOC(=O)Nc1nc(=O)n(C2OC(COC(=O)COc3nc(Cl)c(Cl)cc3Cl)C(O)C2(F)F)cc1I (stereo not drawn) [Compound G11]
Weight of mice, Day 7 / g: 19.73
--
compound: CCCCOC(=O)Nc1nc(=O)n(C2OC(COC(=O)COc3nc(Cl)c(Cl)cc3Cl)C(O)C2(F)F)cc1Br (stereo not drawn) [Compound G16]
Weight of mice, Day 7 / g: 20.43
--
compound: CCCCOC(=O)Nc1nc(=O)n(C2OC(COC(=O)COc3nc(Cl)c(Cl)cc3Cl)C(O)C2(F)F)cc1-c1cn(Cc2ccccc2)nn1 (stereo not drawn) [Compound G15]
Weight of mice, Day 7 / g: 20.10
--
compound: CCCCOC(=O)Nc1nc(=O)n([C@@H]2O[C@H](COC(=O)Cn3cnc([N+](=O)[O-])c3)C(O)C2(F)F)cc1I (stereo partly drawn) [Compound G12]
Weight of mice, Day 7 / g: 19.85

----------
Measured Weight of mice, Day 18 by item
# details: Day 18; G10-G16 groups; single IP 400 mg/kg; Mean±SEM
measured.endpoint: Weight of mice, Day 18 (g)

compound: CCCCOC(=O)Nc1nc(=O)n(C2OC(COC(=O)COc3nc(Cl)c(Cl)cc3Cl)C(O)C2(F)F)cc1Br (stereo not drawn)
value.observed: 21.80
//
compound: CCCCOC(=O)Nc1nc(=O)n(C2OC(COC(=O)COc3nc(Cl)c(Cl)cc3Cl)C(O)C2(F)F)cc1I (stereo not drawn)
value.observed: 20.80
//
compound: O=C(COc1nc(Cl)c(Cl)cc1Cl)OC[C@H]1O[C@@H](n2cc(Br)c(NC(=O)OCc3ccccc3)nc2=O)C(F)(F)C1O (stereo partly drawn)
value.observed: 19.55
//
compound: CCCCOC(=O)Nc1nc(=O)n([C@@H]2O[C@H](COC(=O)Cn3cnc([N+](=O)[O-])c3)C(O)C2(F)F)cc1I (stereo partly drawn)
value.observed: 21.05
//
compound: CCCCOC(=O)Nc1nc(=O)n(C2OC(COC(=O)COc3nc(Cl)c(Cl)cc3Cl)C(O)C2(F)F)cc1-c1cn(Cc2ccccc2)nn1 (stereo not drawn)
value.observed: 23.20
//
compound: O=C(COc1nc(Cl)c(Cl)cc1Cl)OCC1OC(n2cc(-c3cn(Cc4ccccc4)nn3)c(NC(=O)OCc3ccc([N+](=O)[O-])cc3)nc2=O)C(F)(F)C1O (stereo not drawn)
value.observed: 21.45

----------
# details: Day 2; G10-G16 groups; single IP 400 mg/kg; Mean±SEM
Documented Weight of mice, Day 2 across a set of compounds

compound: CCCCOC(=O)Nc1nc(=O)n(C2OC(COC(=O)COc3nc(Cl)c(Cl)cc3Cl)C(O)C2(F)F)cc1Br (stereo not drawn) [Compound G16]
quantity.unit: g
Weight of mice, Day 2: 20.45

compound: CCCCOC(=O)Nc1nc(=O)n(C2OC(COC(=O)COc3nc(Cl)c(Cl)cc3Cl)C(O)C2(F)F)cc1I (stereo not drawn) [Compound G11]
quantity.unit: g
Weight of mice, Day 2: 19.25

compound: O=C(COc1nc(Cl)c(Cl)cc1Cl)OC[C@H]1O[C@@H](n2cc(Br)c(NC(=O)OCc3ccccc3)nc2=O)C(F)(F)C1O (stereo partly drawn) [Compound G10]
quantity.unit: g
Weight of mice, Day 2: 19.73

compound: CCCCOC(=O)Nc1nc(=O)n([C@@H]2O[C@H](COC(=O)Cn3cnc([N+](=O)[O-])c3)C(O)C2(F)F)cc1I (stereo partly drawn) [Compound G12]
quantity.unit: g
Weight of mice, Day 2: 19.42

compound: CCCCOC(=O)Nc1nc(=O)n(C2OC(COC(=O)COc3nc(Cl)c(Cl)cc3Cl)C(O)C2(F)F)cc1-c1cn(Cc2ccccc2)nn1 (stereo not drawn) [Compound G15]
quantity.unit: g
Weight of mice, Day 2: 17.9

compound: O=C(COc1nc(Cl)c(Cl)cc1Cl)OCC1OC(n2cc(-c3cn(Cc4ccccc4)nn3)c(NC(=O)OCc3ccc([N+](=O)[O-])cc3)nc2=O)C(F)(F)C1O (stereo not drawn) [Compound G13]
quantity.unit: g
Weight of mice, Day 2: 19.05

----------
# details: Day 4; G3-G9 groups; single IP dose; Mean±SEM
// NB: equality with 20 g counts as 0.0; only Weight of mice, Day 4 strictly below is 1.0

compound.smiles: O=C(Nc1ccn([C@@H]2O[C@H](CO)[C@@H](O)C2(F)F)c(=O)n1)OCc1ccccc1
class.assignment: 1.0

compound.smiles: CC(C)(C)OC(=O)Nc1ccn([C@@H]2O[C@H](CO)[C@@H](O)C2(F)F)c(=O)n1
class.assignment: 0.0

compound.smiles: O=C(Nc1nc(=O)n([C@@H]2O[C@H](CO)[C@@H](O)C2(F)F)cc1Br)OCc1ccccc1
class.assignment: 1.0

compound.smiles: O=C(Nc1ccn([C@@H]2O[C@H](CO)[C@@H](O)C2(F)F)c(=O)n1)OCc1ccc([N+](=O)[O-])cc1
class.assignment: 1.0

compound.smiles: CCCCOC(=O)Nc1nc(=O)n([C@@H]2O[C@H](CO)[C@@H](O)C2(F)F)cc1Br
class.assignment: 1.0

----------
# details: Day 8; G3-G9 groups; single IP dose; Mean±SEM
# maps each entry to its Weight of mice, Day 8

compound.smiles: O=C(Nc1ccn([C@@H]2O[C@H](CO)[C@@H](O)C2(F)F)c(=O)n1)OCc1ccc([N+](=O)[O-])cc1
Weight of mice, Day 8 [g]: 21.63
--
compound.smiles: O=C(Nc1ccn([C@@H]2O[C@H](CO)[C@@H](O)C2(F)F)c(=O)n1)OCc1ccccc1
Weight of mice, Day 8 [g]: 20.48
--
compound.smiles: CC(C)(C)OC(=O)Nc1ccn([C@@H]2O[C@H](COC(=O)Cn3cnc([N+](=O)[O-])c3)[C@@H](O)C2(F)F)c(=O)n1
Weight of mice, Day 8 [g]: 21.22
--
compound.smiles: O=C(Nc1nc(=O)n([C@@H]2O[C@H](CO)[C@@H](O)C2(F)F)cc1Br)OCc1ccccc1
Weight of mice, Day 8 [g]: 21.30
--
compound.smiles: CC(C)(C)OC(=O)Nc1ccn([C@@H]2O[C@H](CO)[C@@H](O)C2(F)F)c(=O)n1
Weight of mice, Day 8 [g]: 21.03
--
compound.smiles: CCCCOC(=O)Nc1nc(=O)n([C@@H]2O[C@H](CO)[C@@H](O)C2(F)F)cc1Br
Weight of mice, Day 8 [g]: 19.60
